Tested on: HT-29
Assay info: Cytotoxicity against human HT-29 cells
Assay type: functional, cell-based
Observable: IC50 (nM)
Respond numerically; units are nM and should not be typed.

# example entries with known answers
>>> df
                                   compound  observable  units_of_measure  measured_result
0  CCc1c2c(nc3ccc(O)cc13)-c1cc3c(c(=O)n1C2)COC(=O)[C@]3(O)CC [7-ETHYL-10-HYDROXYCAMPTOTHECIN]        IC50                nM              5.9
1  CC(C)[C@]12O[C@H]1[C@@H]1O[C@]13[C@]1(O[C@H]1C[C@H]1C4=C(CC[C@@]13C)C(=O)OC4)[C@@H]2O [TRIPTOLIDE]        IC50                nM              2.1

For reference, reported IC50 for CC(C)[C@]12O[C@H]1[C@@H]1O[C@@]13[C@H]1CCC4=C(COC4=O)[C@@H]1C[C@@H]1O[C@@]13[C@@]2(C)O stands at 22

For reference, reported IC50 for CC(C)[C@]12O[C@H]1[C@@H]1O[C@@]13[C@H]1CCC4=C(COC4=O)[C@@H]1C[C@@H]1O[C@@]13[C@]21CO1 stands at 0.65

* * *

Test system: HT-29
Assay info: Cytotoxicity against human HT-29 cells
Format: functional, cell-based
Observable: IC50 (µM)
Respond numerically; units are µM and should not be typed.

# example entries with known answers
Molecule	Observable	Units of measure	Measured result
CC[C@@]1(O)[C@]23O[C@H]2C[C@H]2C4=C(CC[C@@H]2[C@@]32O[C@H]2[C@@H]2O[C@@]21C(C)C)C(=O)OC4	IC50	µM	0.39
Cc1occ2c1CC[C@H]1[C@H]2C[C@@H]2O[C@@]23[C@H](O)[C@@]2(C(C)C)O[C@H]2[C@@H]2O[C@@]123	IC50	µM	2.01
CC(=O)O[C@@]12CO[C@@H]1C[C@H](O)[C@@]1(C)C(=O)[C@H](O)C3=C(C)[C@@H](OC(=O)[C@H](O)[C@@H](NC(=O)OC(C)(C)C)c4ccccc4)C[C@@](O)([C@@H](OC(=O)c4ccccc4)[C@H]21)C3(C)C [DOCETAXEL]	IC50	µM	0.00075
CC(C)[C@]12O[C@H]1[C@@H]1O[C@@]13[C@H]1CCC4=C(COC4=O)[C@@H]1C[C@@H]1O[C@@]13[C@H]2O	IC50	µM	0.078

For reference, reported IC50 for CC(C)[C@]12O[C@H]1[C@@H]1O[C@@]13[C@@]1(C)CCC4=C(COC4=O)[C@@H]1C[C@@H]1O[C@@]13C2=O [TRIPTONIDE] stands at 0.0084

* * *

Test system: HT-29
Assay info: Cytotoxicity against human HT-29 cells
Format: functional, cell-based
pIC50: −log10 of the molar value.
Observable: pIC50

Here CCc1occ2c1CC[C@H]1[C@H]2C[C@@H]2O[C@@]23[C@H](O)[C@@]2(C(C)C)O[C@H]2[C@@H]2O[C@@]123 was tested on HT-29, and its pIC50 came to < 4.87

Here Cc1occ2c1CC[C@H]1[C@H]2C[C@@H]2O[C@]23[C@]12O[C@H]2[C@@H]1O[C@]1(C(C)C)[C@]3(C)O was tested on HT-29, and its pIC50 came to < 4.87

Here Cc1occ2c1CC[C@H]1[C@H]2C[C@@H]2O[C@]23[C@]12O[C@H]2[C@@H]1O[C@]1(C(C)C)[C@@]3(C)O was tested on HT-29, and its pIC50 came to < 4.87
